Target: Prothrombin (Homo sapiens)
Test: Compound was tested for inhibition of thrombin
A collection of molecules and their measured IC50
Unit µM implied. Number only.

MOLECULE	UOM	IC50
N=C(N)N1CCC[C@H](NC(=O)C2CC3CCC(O)CC3N2C(=O)[C@@H](Cc2ccc(O)cc2)NC(=O)[C@H](O)Cc2ccc(OS(=O)(=O)O)cc2)C1O (some centres not stated)	µM	0.0546

Pending molecule:
# IC50 of CC[C@H](C)[C@H](NC(=O)C(O)Cc1ccc(O)cc1)C(=O)N1C2CC(OS(=O)(=O)O)CCC2C[C@H]1C(=O)NCCCCN=C(N)N (some centres not stated) = 15.3
